# experiment-description: Binding affinity to HPPK (unknown origin) assessed as dissociation constant by MST analysis
# Design: species or system Bacteria
measured-property: pKd
One number for each entry, as −log10 of the molar value.

Given Nc1nc2[nH]cc(CCCN3CCC(SC[C@H]4O[C@@H](n5cnc6c(N)ncnc65)[C@H](O)[C@@H]4O)CC3C(=O)O)c2c(=O)[nH]1 (stereo partly specified) , state its recorded pKd.
4.89
